tested on: Rhizoctonia solani; experiment: Antifungal activity against Rhizoctonia solani at 50 ug/ml; format: functional
Consider the following compounds; for each one, report its inhibition at 50 µg/mL.
The reply should contain only the number, in %.

Quick note, inhibition at 50 µg/mL for "COc1ccc(C[C@@]2(CNC(=O)c3ccccn3)CCC[C@]3(C)c4ccc(C(C)C)cc4CC[C@@H]23)cc1" landed at 48.6

Quick note, inhibition at 50 µg/mL for "CC(C)c1ccc2c(c1)CC[C@H]1[C@@](CNC(=O)c3ccccn3)(Cc3ccc(C#N)cc3)CCC[C@]21C" landed at 28.5

Quick note, inhibition at 50 µg/mL for "Cc1ccc(C[C@@]2(CNC(=O)c3ccccn3)CCC[C@]3(C)c4ccc(C(C)C)cc4CC[C@@H]23)cc1C" landed at 7.4

Quick note, inhibition at 50 µg/mL for "CC(C)c1ccc2c(c1)CC[C@H]1[C@@](CNC(=O)c3ccccn3)(Cc3ccc(N)cc3)CCC[C@]21C" landed at 28.5

Quick note, inhibition at 50 µg/mL for "CCOC(=O)c1ccc(C[C@@]2(CNC(=O)c3ccccn3)CCC[C@]3(C)c4ccc(C(C)C)cc4CC[C@@H]23)cc1" landed at 0

Quick note, inhibition at 50 µg/mL for "CC(C)c1ccc2c(c1)CC[C@H]1[C@@](CNC(=O)c3ccccn3)(Cc3ccc(Cl)cc3)CCC[C@]21C" landed at 55.3

Quick note, inhibition at 50 µg/mL for "COc1ccc(C[C@@]2(CN)CCC[C@]3(C)c4ccc(C(C)C)cc4CC[C@@H]23)cc1" landed at 95.6
